// reported Papp for each item listed
conditions: pampa; pH 5.0; 30.0 min; 50.0 µM
Reported metric: Papp (×10⁻⁶ cm/s)

compound=CN1Cc2c(cc(N3CCOCC3)nc2-c2ccccc2OC(F)(F)F)C1=O op=> measured_number=1000
compound=O=S(=O)(c1ccccc1)c1nc(-c2ccc(F)cc2)oc1N1CCCCCC1 op=> measured_number=1000
compound=COc1ccccc1CNS(=O)(=O)c1ccc(-c2cnc(C3CC3)o2)cc1 op=> measured_number=1000
compound=Cc1cc(NS(=O)(=O)c2ccc3c(c2)CCC(=O)N3)ccc1F op== measured_number=463
compound=Cc1onc(-c2ccc(F)cc2)c1COc1ccc(C(=O)N2CCS(=O)(=O)CC2)cn1 op== measured_number=291
compound="COc1ccc(-n2nc(C3CCCN(CC4CCCCC4)C3)[nH]c2=O)cc1 (stereo not drawn)" op== measured_number=322
compound=O=C(Nc1cccc(OC(F)(F)F)c1)c1cc(-c2ccc[nH]2)n[nH]1 op== measured_number=103
compound="CCc1ccc(OC(C)C(=O)N2CCC(c3nc4ccccc4o3)CC2)cc1 (stereo not drawn)" op=> measured_number=1000

###

conditions: pampa; pH 5.0; 30.0 min; 50.0 µM
Reported metric: Papp

compound=CCOc1ccc(CCNC(=O)c2cccc(C(=O)c3ccccc3)c2)cc1OCC reported_metric=Papp result="> 1000 ×10⁻⁶ cm/s"
compound="CCc1cccc(NC(=O)C(Cc2ccccc2)NS(=O)(=O)c2cccs2)c1 (centres undefined)" reported_metric=Papp result="> 1000 ×10⁻⁶ cm/s"
compound=CCc1cccc(NC(=O)CSc2nc3ccccc3nc2N2CCCCC2)c1 reported_metric=Papp result="351 ×10⁻⁶ cm/s"
compound=COc1ccc(NC(=O)c2ccc[nH]2)cc1S(=O)(=O)Nc1ccc(Br)cc1 reported_metric=Papp result="> 1000 ×10⁻⁶ cm/s"
compound=COc1cccc(N2CCN(c3ncc4c(n3)CCN(Cc3ccc(Br)cc3)C4)CC2)c1 reported_metric=Papp result="939 ×10⁻⁶ cm/s"
compound=O=C(Nc1ccc2c(N3CCCCC3)ncnc2c1)c1cc(F)cc(F)c1 reported_metric=Papp result="817 ×10⁻⁶ cm/s"
compound=Cc1nn2c(c1-c1ccccc1Oc1ccccc1)N(Cc1ccccc1O)CCC2 reported_metric=Papp result="879 ×10⁻⁶ cm/s"
compound=COc1ccccc1Nc1ccnc(N2CCN(C(=O)c3ccc(F)cc3)CC2)n1 reported_metric=Papp result="853 ×10⁻⁶ cm/s"
compound="CCOC(=O)c1ccc(N2C(=O)c3n[nH]c(-c4cccs4)c3C2c2ccc(Cl)cc2Cl)cc1 (centres undefined)" reported_metric=Papp result="316 ×10⁻⁶ cm/s"
compound=c1ccc(-c2cn[nH]c2)cc1 reported_metric=Papp result="51.2 ×10⁻⁶ cm/s"
compound="O=C(Cc1ccc(O)cc1)N1CC(CNc2ccccc2)C2(C1)CN(c1ccccc1)C2 (centres undefined)" reported_metric=Papp result="616 ×10⁻⁶ cm/s"
compound=Cc1nc([C@](C)(O)CO)sc1-c1cnc(N)c(O[C@H](C)c2cc(F)ccc2-n2nccn2)c1 reported_metric=Papp result="322 ×10⁻⁶ cm/s"
compound=COc1ccccc1C(=O)Nc1nnc(SCc2cc(=O)c3ccccc3[nH]2)s1 reported_metric=Papp result="402 ×10⁻⁶ cm/s"
compound=COc1cc2ncnc(Nc3ccc(Oc4ccccc4)cc3)c2cc1OC reported_metric=Papp result="981 ×10⁻⁶ cm/s"
compound=COCCNc1ncc(-c2cccc(O)c2)c2c1OCC2 reported_metric=Papp result="77 ×10⁻⁶ cm/s"
compound="Cc1ccc(-n2nc3c(=O)n(CCCC(=O)NC(C)c4ccccc4)nc(C)c3c2C)cc1 (centres undefined)" reported_metric=Papp result="562 ×10⁻⁶ cm/s"
compound=CCOC(=O)c1ccc(NC(=O)CSc2nc3c(cc2C#N)N2CCC3CC2)cc1 reported_metric=Papp result="236 ×10⁻⁶ cm/s"
compound=FC(F)(F)c1ccc(CN2CCNc3cc(Nc4ccccc4)ncc3C2)cc1 reported_metric=Papp result="21.1 ×10⁻⁶ cm/s"
compound=CN(C)CC/C=C1\c2ccccc2Sc2ccc(Cl)cc21 reported_metric=Papp result="531 ×10⁻⁶ cm/s"
compound=COc1ncc(-c2ccc3c(Nc4cc(Oc5cc(F)cc(F)c5)cc(C(=O)O)c4)c(S(=O)(=O)NC4CC4)cnc3c2)c(OC)n1 reported_metric=Papp result="1.2 ×10⁻⁶ cm/s"
compound=CCS(=O)(=O)c1ncc(N(Cc2ccc(F)cc2)Cc2ccco2)c(C(=O)Nc2cc(C)ccc2C)n1 reported_metric=Papp result="696 ×10⁻⁶ cm/s"
compound=CN(C)C(=O)c1nc(-c2ccc(Cl)cc2Cl)c2cnccn12 reported_metric=Papp result="> 1000 ×10⁻⁶ cm/s"
compound=CC(C)(C)C(=O)N1CCN(c2nccc(Nc3ccccc3Cl)n2)CC1 reported_metric=Papp result="895 ×10⁻⁶ cm/s"
compound=O=C(Nc1ccccc1-c1cn2c(CN3CCNCC3)csc2n1)c1cnc2ccccc2n1 reported_metric=Papp result="342 ×10⁻⁶ cm/s"

###

details: pampa; pH 5.0; 30.0 min; 50.0 µM
Reported metric: Papp (×10⁻⁶ cm/s)

molecule=CCOc1ccccc1CNS(=O)(=O)c1ccc(-c2cnc(C3CC3)o2)cc1 op=> measured_number=1000
molecule="COc1ccccc1C(=O)NC1CCCc2c1[nH]c1c(Cl)cccc21 (centres undefined)" op== measured_number=607
molecule=Cc1cccc(-c2noc([C@@H]3Cc4nc[nH]c4CN3)n2)c1 op== measured_number=169
molecule="Cc1ccc2oc3c(c(=O)c2c1)C(c1cccc(O)c1)N(CCCN1CCOCC1)C3=O (centres undefined)" op== measured_number=2.62
molecule=COc1ccc(C)cc1NC(=O)c1cnc(-c2ccc(F)cc2)nc1-c1ccncc1 op== measured_number=926
molecule=COc1ccc(-n2nc(C)c([C@@H]3C=C[C@@H](NCc4ccc(F)cc4)C3)c2C)cc1 op== measured_number=482
molecule=O=C(c1ccc(-c2ncc3cnc(-c4ccccc4)cn23)cc1)N1CCS(=O)(=O)CC1 op== measured_number=22.8
molecule=Oc1ccccc1CN1CCNc2cc(Nc3ccccc3)ncc2C1 op== measured_number=23.1
molecule=CN(C)[C@@H]1CCN(c2cccc(Nc3nn4c(=O)c5ccccc5nc4s3)c2)C1 op== measured_number=24.9
molecule="Cc1ccc(NC(=O)C(Cc2ccccc2)NS(=O)(=O)c2cccs2)cc1Cl (centres undefined)" op== measured_number=570
molecule=COc1ccc2[nH]c3c(c2c1)CCNC31CCN(S(=O)(=O)c2c(C)noc2C)CC1 op== measured_number=161
molecule=c1cc(-c2cc(-c3ccncc3)c3cncn3c2)c2cc[nH]c2c1 op== measured_number=21.7
molecule=Cc1ccc(CNCc2cn[nH]c2-c2ccc(C)cc2)cc1 op== measured_number=410
molecule=CCCc1oc2ccc(NS(=O)(=O)c3ccc(OC)cc3)cc2c1C(=O)OCC op== measured_number=1.84
molecule="CCOc1ccccc1C(=O)NC1CCN(c2cc(C)cc(C)c2)C1=O (centres undefined)" op=> measured_number=1000
molecule=CCOc1ccc(-c2cn3c(n2)sc2cc(C(=O)NCCCN(CC)CC)ccc23)cc1 op== measured_number=114
molecule=C=Cc1ccc(Cn2c(C(=O)O)c(CNC3CCCCC3)c3ccc(OC)cc32)cc1 op== measured_number=702
molecule=Cc1cc(C)cc(C(=O)Nc2ccc3c(N4CCCC4)ncnc3c2)c1 op== measured_number=506
molecule="O=C(NC1CCCc2c1[nH]c1ccccc21)c1ccccc1 (centres undefined)" op== measured_number=680

###

// reported Papp for each item listed
conditions: pampa; pH 5.0; 30.0 min; 50.0 µM
Reported metric: Papp (×10⁻⁶ cm/s)

compound=COc1cccc(Nc2ncc(-c3cccc(N(C)C)c3)c3c2OCC3)c1 reported_metric=Papp units_text="×10⁻⁶ cm/s" op=> measured_number=1000
compound="O=c1[nH]c(C2CCCN(CC3CCCCC3)C2)nn1-c1ccc(Cl)cc1 (stereo unspecified)" reported_metric=Papp units_text="×10⁻⁶ cm/s" op=> measured_number=1000
compound=COc1ccccc1CN1CCNc2cc(Nc3ccccc3)ncc2C1 reported_metric=Papp units_text="×10⁻⁶ cm/s" op== measured_number=22.3
compound=CCOc1ccc(Nc2nc(C)c(NC(=O)c3ccc(C)cc3)c(Nc3ccc(OCC)cc3)n2)cc1 reported_metric=Papp units_text="×10⁻⁶ cm/s" op== measured_number=59
compound=COc1cc([C@@H](CC(=O)O)c2ccc(C)c(CN3C[C@@H](C)Oc4ccccc4S3(=O)=O)c2)cc2nnn(C)c12 reported_metric=Papp units_text="×10⁻⁶ cm/s" op== measured_number=898
compound=O=C(Nc1ccccc1F)c1nc(S(=O)(=O)Cc2ccccc2F)ncc1Cl reported_metric=Papp units_text="×10⁻⁶ cm/s" op== measured_number=505
compound=COc1ccc(OC)c(CN2CCNc3cc(Nc4ccccc4)ncc3C2)c1 reported_metric=Papp units_text="×10⁻⁶ cm/s" op== measured_number=2.33
compound=Cc1nn2c(c1-c1ccccc1OCc1ccccc1)N(C(=O)Cc1ccc3c(c1)OCO3)CCC2 reported_metric=Papp units_text="×10⁻⁶ cm/s" op=> measured_number=1000
compound=CS(=O)(=O)c1ccc(-c2cnc(NCc3ccco3)n3cnnc23)cc1 reported_metric=Papp units_text="×10⁻⁶ cm/s" op== measured_number=13.6
compound=COc1ccccc1Nc1ccnc(N2CCN(C(=O)c3ccc(C)cc3)CC2)n1 reported_metric=Papp units_text="×10⁻⁶ cm/s" op=> measured_number=1000
compound=O=S(=O)(Nc1ccc(-c2cccnc2)c2cccnc12)c1cccc(C(F)(F)F)c1 reported_metric=Papp units_text="×10⁻⁶ cm/s" op=> measured_number=1000
compound="COc1ccc(C2c3c(oc4ccc(Cl)cc4c3=O)C(=O)N2CCCN(C)C)cc1OC (stereo unspecified)" reported_metric=Papp units_text="×10⁻⁶ cm/s" op== measured_number=7.76
compound=COc1ccccc1N1CCN(CCN(C(=O)c2ccc(F)cc2)c2ccccn2)CC1 reported_metric=Papp units_text="×10⁻⁶ cm/s" op== measured_number=73
compound=c1ccc(Nc2cc3c(cn2)CN(Cc2ccsc2)CCN3)cc1 reported_metric=Papp units_text="×10⁻⁶ cm/s" op== measured_number=15.3
compound=COc1ccc(-n2nc(C3CCN([S+](=O)([O-])c4c(C)noc4C)CC3)[nH]c2=O)cc1 reported_metric=Papp units_text="×10⁻⁶ cm/s" op== measured_number=308
compound=c1coc(-c2nc3ccncc3[nH]2)c1 reported_metric=Papp units_text="×10⁻⁶ cm/s" op== measured_number=5.56

The reported numbers originate from PubChem BioAssay AID1645871.
